Each entry below lists one item and its recorded viability, T/C value.
System: 935938-334-R-J1-PDC spheroids with HUVEC/MSC, viability
Assay: Anticancer human tumor 935938-334-R-J1-PDC patient-derived small intestine adenocarcinoma cell line growth inhibition [PI3K]
Conditions: second compound 0.1 µM; first compound 0.0316 µM; stronger effect = lower value
MEASURED QUANTITY: viability, T/C (%)

[[record]]
compound = "C#Cc1c(F)ccc2cc(O)cc(-c3ncc4c(N5CC6CCC(C5)N6)nc(OCC56CCCN5CC(F)C6)nc4c3F)c12 (centres undefined) + Cc1nc(NC(=O)N2CCCC2C(N)=O)sc1-c1ccnc(C(C)(C)C(F)(F)F)c1"
experimental_system = "935938-334-R-J1-PDC spheroids with HUVEC/MSC, viability"
readout_unit = "%"
recorded_measurement = 88.8

[[record]]
compound = "Cn1nccc1Nc1nccc(-c2ccn(C(CO)c3ccc(Cl)c(F)c3)c(=O)c2)n1 (centres undefined) + CC(Nc1ccc2c(c1)OCCn1cc(N3C(=O)OCC3C(F)F)nc1-2)C(N)=O"
experimental_system = "935938-334-R-J1-PDC spheroids with HUVEC/MSC, viability"
readout_unit = "%"
recorded_measurement = 87.6

[[record]]
compound = "CC(C)n1nc(-c2ccc3oc(N)nc3c2)c2c(N)ncnc21 + CC(Nc1ncnc2nc[nH]c12)c1cc2cccc(Cl)c2c(=O)n1-c1ccccc1"
experimental_system = "935938-334-R-J1-PDC spheroids with HUVEC/MSC, viability"
readout_unit = "%"
recorded_measurement = 88.3

[[record]]
compound = "C=CC(=O)N1CCN(c2nc(=O)n(-c3c(C)ccnc3C(C)C)c3nc(-c4c(O)cccc4F)c(F)cc23)C(C)C1 (centres undefined) + CC(Nc1ccc2c(c1)OCCn1cc(N3C(=O)OCC3C(F)F)nc1-2)C(N)=O"
experimental_system = "935938-334-R-J1-PDC spheroids with HUVEC/MSC, viability"
readout_unit = "%"
recorded_measurement = 88.4


* * *

System: 935938-334-R-J1-PDC spheroids with HUVEC/MSC, viability
Experiment: Anticancer human tumor 935938-334-R-J1-PDC cell line growth inhibition [PI3K];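 also: compound exposure lasted seven days before viability was read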
Conditions: curve of first compound; second compound 0.1 µM
MEASURED QUANTITY: IC50

[[record]]
compound = "Cn1cnc2c(F)c(Nc3ccc(Br)cc3Cl)c(C(=O)NOCCO)cc21 + COc1c(OCCCN2CCOCC2)ccc2c3n(c(=NC(=O)c4cnc(N)nc4)nc12)CCN3"
measured_quantity = "IC50"
recorded_measurement = "< 0.00949 µM"

[[record]]
compound = "CC(C)n1nc(-c2ccc3oc(N)nc3c2)c2c(N)ncnc21 + CC(Nc1ncnc2nc[nH]c12)c1cc2cccc(Cl)c2c(=O)n1-c1ccccc1"
measured_quantity = "IC50"
recorded_measurement = "> 0.1 µM"

[[record]]
compound = "C[C@@H](NC(=O)c1ncnc(N)c1Cl)c1ncc(C(=O)Nc2cc(C(F)(F)F)c(Cl)cn2)s1 + Cc1nc(NC(=O)N2CCCC2C(N)=O)sc1-c1ccnc(C(C)(C)C(F)(F)F)c1"
measured_quantity = "IC50"
recorded_measurement = "> 10 µM"


* * *

Each entry below lists one item and its recorded pIC50 value.
System: 935938-334-R-J1-PDC spheroids with HUVEC/MSC, viability
Assay: Anticancer human tumor 935938-334-R-J1-PDC cell line growth inhibition [PI3K];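 also: compound exposure lasted seven days before viability was read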
Conditions: curve of first compound; second compound 0.1 µM
pIC50: −log10 of the molar value.
MEASURED QUANTITY: pIC50

[[record]]
compound = "Cn1ncnc1[C@H]1c2n[nH]c(=O)c3cc(F)cc(c23)N[C@@H]1c1ccc(F)cc1 + CC(Nc1ncnc2nc[nH]c12)c1cc2cccc(Cl)c2c(=O)n1-c1ccccc1"
recorded_measurement = "< 7.00"

[[record]]
compound = "CNC(=O)c1ccc(N2C(=S)N(c3ccc(C#N)c(C(F)(F)F)c3)C(=O)C2(C)C)cc1F + CC(Nc1ncnc2nc[nH]c12)c1cc2cccc(Cl)c2c(=O)n1-c1ccccc1"
recorded_measurement = "< 5.00"

[[record]]
compound = "CC(C)n1nc(-c2ccc3oc(N)nc3c2)c2c(N)ncnc21 + Cc1nc(NC(=O)N2CCCC2C(N)=O)sc1-c1ccnc(C(C)(C)C(F)(F)F)c1"
recorded_measurement = "< 7.00"

[[record]]
compound = "CC(=O)c1c(C)c2cnc(Nc3ccc(N4CCNCC4)cn3)nc2n(C2CCCC2)c1=O + Cc1nc(NC(=O)N2CCCC2C(N)=O)sc1-c1ccnc(C(C)(C)C(F)(F)F)c1"
recorded_measurement = "< 7.00"


Where do the numbers come from? From PubChem BioAssay AID1963966.
